Tested on: T. cruzi intracellular amastigotes in H9c2 cells
Test: Rate-of-Kill (RoK) high-content imaging assay, amastigotes per cell (AM/CELL) and curve descriptors
Type: cell-based, Trypanosoma cruzi
Details: Time 4; sheet figure 4 A
endpoint_label: AM/CELL NORM
Output spec: single numeric token, no unit.

These recorded examples may help you get a feel for the data.
{"columns": ["compound", "system_name", "assay_value"],
 "data": [
  ["CS(=O)(=O)NC1CCC(Oc2cc3cnccc3cc2-c2ccsc2)CC1.O=C(O)C(F)(F)F (centres unmarked) [TCMDC-143302]", "T. cruzi intracellular amastigotes in H9c2 cells", -2.284],
  ["COc1ccc2c(Cl)c(C(=O)N3CCC3)sc2c1Cl [TCMDC-143262]", "T. cruzi intracellular amastigotes in H9c2 cells", 16.6129],
  ["CS(=O)(=O)c1cccc(-c2cnc(N)c3c(-c4ccc(CO)cc4)csc23)c1.O=C(O)C(F)(F)F [TCMDC-143410]", "T. cruzi intracellular amastigotes in H9c2 cells", 25.2958],
  ["Cn1nccc1-c1cc(OC(CN)c2ccccc2)cnc1-c1ccco1.O=C(O)C(F)(F)F.O=C(O)C(F)(F)F (centres unmarked) [TCMDC-143221]", "T. cruzi intracellular amastigotes in H9c2 cells", 21.0268],
  ["COc1ccc(S(=O)(=O)Nc2ccccc2OC)cc1NC(=O)CCCc1c[nH]c2ccccc12 [TCMDC-143256]", "T. cruzi intracellular amastigotes in H9c2 cells", 3.221]
]}

Short answer please: AM/CELL NORM, T. cruzi intracellular amastigotes in H9c2 cells, entry O=C(NCCc1cccnc1)c1csc(-c2ccccc2)n1 [TCMDC-143203] 2.597

Short answer please: AM/CELL NORM, T. cruzi intracellular amastigotes in H9c2 cells, entry CCn1nccc1CN(C)C(=O)C=Cc1ccc(Cl)cc1 [TCMDC-143325] 13.1334

Short answer please: AM/CELL NORM, T. cruzi intracellular amastigotes in H9c2 cells, entry CN(C)Cc1ccc(-c2ccc(S(=O)(=O)NCC3CCCO3)c(F)c2)cc1.O=C(O)C(F)(F)F (centres unmarked) [TCMDC-143085] -2.755

* * *

System: T. cruzi intracellular amastigotes in H9c2 cells
Test: Rate-of-Kill (RoK) high-content imaging assay, amastigotes per cell (AM/CELL) and curve descriptors
Format: cell-based, Trypanosoma cruzi
Details: maximum effect at 72 h, RoK assay
Where ME_72h (%) equals or exceeds 40%, the correct label is condition met; where it does not, the label is condition not met.

{"columns": ["compound", "answer_label"],
 "data": [
  ["Cc1nccn1C1CCCN(C(=O)c2cc3c(F)cccc3s2)C1 (centres unmarked)", "condition met"]
]}

// inclusive: ME_72h (%) at least 40%? input: Cc1[nH]nc2c1C(c1ccc(OCc3ccccc3F)cc1)SCC(=O)N2 (centres unmarked) condition not met

// inclusive: ME_72h (%) at least 40%? input: CS(=O)(=O)c1cccc(-c2cnc(N)c3c(-c4ccc(CO)cc4)csc23)c1.O=C(O)C(F)(F)F condition met

// inclusive: ME_72h (%) at least 40%? input: COc1ccc(C2CC(c3ccccc3Cl)=NN2C(=O)CNC(=O)C2CCC2)cc1 (centres unmarked) condition met

// inclusive: ME_72h (%) at least 40%? input: Cn1nccc1-c1cc(OC(CN)c2ccccc2)cnc1-c1ccco1.O=C(O)C(F)(F)F.O=C(O)C(F)(F)F (centres unmarked) condition not met

// inclusive: ME_72h (%) at least 40%? input: COc1ccc(NS(=O)(=O)c2cc(-c3cc(C)[nH]n3)ccc2C)cc1OC condition not met

// inclusive: ME_72h (%) at least 40%? input: CN1CCCN(C(=O)c2ccc(N3CCCC3)cc2Cl)CC1 condition met

// inclusive: ME_72h (%) at least 40%? input: Cc1c(C(=O)NCCCCn2ccnc2)oc2c(C)cccc12 condition met

// inclusive: ME_72h (%) at least 40%? input: CCOc1cnn(C)c(=O)c1Nc1ccc(C(=O)NCc2ccc(F)cc2)cc1 condition not met

// inclusive: ME_72h (%) at least 40%? input: COc1ccc(C(C)N(C)c2ncc3c(N)nc(N)nc3n2)cc1F (centres unmarked) condition met

// inclusive: ME_72h (%) at least 40%? input: N#Cc1ccc(S(=O)(=O)N2CCC3(CCN(c4ccccc4)C3=O)CC2)cc1 condition met

// inclusive: ME_72h (%) at least 40%? input: CCC(=O)Nc1ccc(-c2nc3ccc(Cl)cc3[nH]2)cc1 condition not met

// inclusive: ME_72h (%) at least 40%? input: COc1ccc(-c2nc3ncccc3o2)cc1NC(=O)c1cccs1 condition met

// inclusive: ME_72h (%) at least 40%? input: CN(C(=O)Nc1ccc2c(c1)CCN(C1CCC1)CC2)c1ccc(C#N)cc1.Cl condition not met

// inclusive: ME_72h (%) at least 40%? input: Cc1cc2cncn2c(C2CCCCN2C(=O)c2cccs2)n1 (centres unmarked) condition met

* * *

Test system: T. cruzi Tulahuen trypomastigotes
Experiment: T. cruzi trypomastigote assay (Cell Titer-Glo viability, ATP luminescence)
Format: cell-based, Trypanosoma cruzi
Conditions: trypomastigote assay, 48 h; figure 1A
Method: T. cruzi Tulahuen trypomastigotes obtained from the supernatants of LLC-MK2 infected cultures in a 225 cm^2 T-Flasks harvested between days 5 and 8 of infection. […] Cell Titer-Glo cell viability solution (Promega) was added to each well (50 μL) incubated at room temperature for 10 min and luminescence read by Envision plate reader (Perkin Elmer). This assay quantifies the amount of ATP present which is directly proportional to the number of metabolically active cells. […]
endpoint_label: 48 pIC50

{"columns": ["compound", "system_name", "48 pIC50"],
 "data": [
  ["CN(Cc1ccc(F)cc1)c1ccc(OCC(=O)N2CCCCC2c2cccnc2)nn1 (centres unmarked) [TCMDC-143334]", "T. cruzi Tulahuen trypomastigotes", "< 4.3"]
]}

// switching to the query compound
Using the record for Cc1nccn1C1CCCN(C(=O)c2cc3c(F)cccc3s2)C1 (centres unmarked) [TCMDC-143498] , report its 48 pIC50. 4.7

* * *

Test system: T. cruzi intracellular amastigotes in H9c2 cells
Test: Rate-of-Kill (RoK) high-content imaging assay, amastigotes per cell (AM/CELL) and curve descriptors
Assay type: cell-based, Trypanosoma cruzi
Conditions: maximum effect at 72 h, RoK assay
Parameter: ME_72h (%). Scope: all listed entries.
Use % as the unit, but write only the number.

{"columns": ["molecule", "ME_72h (%)"],
 "data": [
  ["CCCc1nc2nc(N)nc(N)c2cc1CC", 54.4],
  ["Cc1[nH]c2ccccc2c(=O)c1Cc1c(C)[nH]c2ccccc2c1=O", 51.9],
  ["FC(F)(F)c1cc(C2CCCN(Cc3c[nH]c4ccccc34)C2)nc2ncnn12.O=C(O)C(O)C(O)C(=O)O (stereo not shown)", 83.6],
  ["OCCCNc1nc(Nc2ccncc2)nc2ccccc12", -23.1],
  ["Cc1sc(C)c(C(F)(F)F)c1CNCCCNc1cc(=O)c2ccccc2[nH]1.Cl", 71.6],
  ["CS(=O)(=O)c1ccc(CC(=O)Nc2nc(-c3ccc(Cl)s3)cs2)cc1", 53.7],
  ["Cn1cncc1CN1CCC2(CC1)COC(Cc1ccccc1)C2 (stereo not shown)", 64.9],
  ["CC(=O)Nc1ccc(-c2noc(CC3CCCN(Cc4cccc(F)c4C)C3)n2)cc1 (stereo not shown)", 68.1]
]}

Using the record for CC(C)Oc1cccc(N2CCC(C(=O)N3CCCN(C(C)C)CC3)CC2)c1.Cl , report its ME_72h (%). 80.0

* * *

Parameter: AM/CELL NORM. Scope: all listed entries.
System: T. cruzi intracellular amastigotes in H9c2 cells
Assay: Rate-of-Kill (RoK) high-content imaging assay, amastigotes per cell (AM/CELL) and curve descriptors
Format: cell-based, Trypanosoma cruzi
Settings: Time 24; figure 4 A
Output spec: single numeric token, no unit.

{"columns": ["compound", "endpoint_label", "assay_value"],
 "data": [
  ["O=C(NCC1CCCCC1)c1cc(=O)c2ccccc2o1", "AM/CELL NORM", 30.3317],
  ["COc1ccc(NS(=O)(=O)c2cccc(NC(=O)c3cc(F)cc(F)c3)c2)cc1", "AM/CELL NORM", 27.4841],
  ["NC(=O)c1ccccc1Nc1nc(NC2CCCCC2)nc2[nH]ccc12", "AM/CELL NORM", -235.508],
  ["CCOc1ccc(NC(=O)C=Cc2ccc(CC)o2)cc1", "AM/CELL NORM", -214.627],
  ["COc1ccc(NS(=O)(=O)c2cc(-c3cc(C)[nH]n3)ccc2C)cc1OC", "AM/CELL NORM", 13.7763],
  ["CC[C@@H]([C@H](C)O)n1ncn(-c2ccc(N3CCN(c4ccc(OC[C@@H]5CO[C@@](Cn6cncn6)(c6ccc(F)cc6F)C5)cc4)CC3)cc2)c1=O [Posaconazole, reference compound]", "AM/CELL NORM", -32.2625]
]}

// switching to the query compound
Using the record for CCN(C)Cc1ccc(N2CCC(NS(=O)(=O)c3ccc4c(c3)CCO4)CC2)nc1 , report its AM/CELL NORM. -52.1365
